Target: full-length MALT1 protein (Strep-MALT1(1-824)-His) (Homo sapiens)
Sequence (Q9UDY8 1-824): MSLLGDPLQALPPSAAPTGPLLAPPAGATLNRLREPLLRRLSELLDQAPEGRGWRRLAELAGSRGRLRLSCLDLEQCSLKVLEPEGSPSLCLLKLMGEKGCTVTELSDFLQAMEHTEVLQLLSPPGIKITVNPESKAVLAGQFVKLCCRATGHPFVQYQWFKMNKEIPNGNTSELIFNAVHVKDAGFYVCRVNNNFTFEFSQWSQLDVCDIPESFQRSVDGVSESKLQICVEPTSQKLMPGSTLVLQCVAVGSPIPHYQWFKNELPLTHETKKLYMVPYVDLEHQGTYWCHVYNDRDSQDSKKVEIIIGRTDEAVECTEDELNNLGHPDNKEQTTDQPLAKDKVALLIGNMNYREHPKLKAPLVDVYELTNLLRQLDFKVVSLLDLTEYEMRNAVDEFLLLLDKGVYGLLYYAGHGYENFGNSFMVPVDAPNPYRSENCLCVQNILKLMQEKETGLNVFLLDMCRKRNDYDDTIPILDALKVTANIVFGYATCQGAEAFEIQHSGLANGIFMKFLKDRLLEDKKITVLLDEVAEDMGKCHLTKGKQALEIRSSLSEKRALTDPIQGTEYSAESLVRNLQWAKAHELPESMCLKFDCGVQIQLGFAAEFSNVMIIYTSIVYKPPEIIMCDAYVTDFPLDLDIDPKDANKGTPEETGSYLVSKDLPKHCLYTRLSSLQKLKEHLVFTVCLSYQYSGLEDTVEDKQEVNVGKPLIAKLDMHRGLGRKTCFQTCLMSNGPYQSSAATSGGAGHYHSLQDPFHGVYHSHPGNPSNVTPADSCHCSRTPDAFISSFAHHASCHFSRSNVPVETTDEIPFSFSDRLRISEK
pIC50: −log10 of the molar value.
Each entry gets false if its pIC50 stays under 6, and true if its pIC50 is 6 or above.

* N#Cc1cnc(-n2ncc(C(=O)Nc3cnc(-n4nccn4)c(C#N)c3)c2C(F)(F)F)c(Cl)c1 | false
* N#Cc1cc(NC(=O)c2cnn(-c3c(F)cc(F)cc3F)c2C(F)(F)F)cnc1-n1nccn1 | true

Please indicate if the recorded pIC50 for N#Cc1cc(NC(=O)c2cnn(-c3ccc(F)cc3C(F)(F)F)c2C(F)(F)F)cnc1-n1nccn1 meets or exceeds 6.
true

Please indicate if the recorded pIC50 for N#Cc1cc(NC(=O)c2cnn(-c3cc(F)ccc3Cl)c2C(F)(F)F)cnc1-n1nccn1 meets or exceeds 6.
true

Please indicate if the recorded pIC50 for Cc1cnc([C@@H]2COCCO2)cc1-n1ncc(C(=O)Nc2cnc(-n3nccn3)c(Cl)c2)c1C(F)(F)F (single isomer, unassigned) meets or exceeds 6.
false

Please indicate if the recorded pIC50 for N#Cc1cc(NC(=O)c2cnn(-c3nc(N)ccc3Cl)c2C(F)(F)F)cnc1-n1nccn1 meets or exceeds 6.
true

---

Tested on: Secretion of IL6 by TMD8 ABC-DLBCL cells
Test: Human IL6 Mesoscale assay (TMD-8)
Assay type: cell-based
Details: TMD8 cells, 24 h incubation, supernatant, MSD V-Plex, read-out: Human IL6 Mesoscale assay (TMD-8)
Reported metric: IC50 (µM)
Give bare numbers, in µM.

Example entries begin here.
* N#Cc1cc(NC(=O)c2cnn(-c3ncc(F)cc3Cl)c2C(F)(F)F)cnc1-n1nccn1 | 2.29
* O=C(Nc1cnc(-n2nccn2)c(Cl)c1)c1cnn(-c2ccccc2)c1C(F)(F)F | 0.263

Specify reported IC50 for the molecule shown: CN1CCc2c1cccc2-n1ncc(C(=O)Nc2cnc(-n3nccn3)c(C#N)c2)c1C(F)(F)F
1.02

---

Target: full-length MALT1 protein (Strep-MALT1(1-824)-His) (Homo sapiens);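 also: fluorogenic LRSR-AMC substrate cleavage by MALT1, 50 min compound preincubation then 4 h reaction at RT, 11-point dilution from 30 µM, scaled between enzyme-free and untreated enzyme controls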
Sequence (Q9UDY8 1-824): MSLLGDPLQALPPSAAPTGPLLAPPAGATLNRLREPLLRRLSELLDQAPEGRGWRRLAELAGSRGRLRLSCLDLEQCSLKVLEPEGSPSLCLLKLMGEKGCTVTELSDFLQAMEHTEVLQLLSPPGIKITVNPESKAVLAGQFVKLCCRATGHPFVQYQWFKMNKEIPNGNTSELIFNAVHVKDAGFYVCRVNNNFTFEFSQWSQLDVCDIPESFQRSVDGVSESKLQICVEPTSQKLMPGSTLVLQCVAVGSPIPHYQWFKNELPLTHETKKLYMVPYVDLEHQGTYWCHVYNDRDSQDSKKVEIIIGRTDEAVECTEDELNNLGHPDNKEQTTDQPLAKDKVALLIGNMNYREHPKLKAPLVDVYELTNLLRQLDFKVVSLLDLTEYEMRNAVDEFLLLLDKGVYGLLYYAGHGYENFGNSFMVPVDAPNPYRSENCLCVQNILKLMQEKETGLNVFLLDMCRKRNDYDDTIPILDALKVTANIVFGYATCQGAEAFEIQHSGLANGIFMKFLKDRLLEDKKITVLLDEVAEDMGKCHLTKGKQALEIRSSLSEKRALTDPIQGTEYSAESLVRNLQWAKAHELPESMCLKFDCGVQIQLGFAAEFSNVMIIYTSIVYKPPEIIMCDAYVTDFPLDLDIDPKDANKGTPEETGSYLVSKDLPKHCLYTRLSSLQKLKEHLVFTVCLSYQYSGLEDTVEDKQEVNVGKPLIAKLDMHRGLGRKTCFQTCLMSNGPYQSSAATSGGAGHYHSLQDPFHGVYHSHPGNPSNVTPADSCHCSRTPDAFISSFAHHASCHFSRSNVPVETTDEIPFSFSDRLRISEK
Reported metric: log10 IC50 (log10 of the value in nM)
In plain terms, each number is the log10 of measured IC50 in nM.

Example entries begin here.
* CS(=O)(=O)c1cccc(-n2ncc(C(=O)Nc3cnc(-n4nccn4)c(Cl)c3)c2C(F)(F)F)c1 | 3.46
* O=C(Nc1cnc(-n2nccn2)c(Cl)c1)c1cnn(-c2ccccn2)c1C(F)(F)F | 3.09
* N#Cc1cc(NC(=O)c2cnn(-c3ncc(F)cc3C#N)c2C(F)(F)F)cnc1-n1nccn1 | 3.35
* CNc1ccc(-n2ncc(C(=O)Nc3cnc(-n4nccn4)c(Cl)c3)c2C(F)(F)F)cn1 | 3.12
* N#Cc1cc(NC(=O)c2cnn(-c3nc(Cl)ccc3C(F)(F)F)c2C(F)(F)F)cnc1-n1nccn1 | 3.15

Return reported log10 IC50 values for all items listed beneath this line.
1. O=C(Nc1cnc(-n2nccn2)c(Cl)c1)c1cnn(-c2cccnc2)c1C(F)(F)F
2. O=C(Nc1cnc(-n2nccn2)c(Cl)c1)c1cnn(-c2cncnc2)c1C(F)(F)F
3. COC(C)c1ccccc1-n1ncc(C(=O)Nc2cnc(-n3nccn3)c(Cl)c2)c1C(F)(F)F (centres unmarked)
4. Cc1nc(-n2nccn2)c(C#N)cc1NC(=O)c1cnn(-c2ccc(F)c(N)n2)c1C(F)(F)F
5. Cc1nc(-n2nccn2)c(C#N)cc1NC(=O)c1cnn(-c2ccc(C#N)c(N)n2)c1C(F)(F)F
6. N#Cc1cc(NC(=O)c2cnn(-c3c(F)cccc3Cl)c2C(F)(F)F)cnc1-n1nccn1
7. N#Cc1cccc(-n2ncc(C(=O)Nc3cnc(-n4nccn4)c(Cl)c3)c2C(F)(F)F)c1
8. O=C(Nc1cnc(-n2nccn2)c(Cl)c1)c1cnn(-c2ccc(F)c(F)c2)c1C(F)(F)F

3.13
3.54
3.47
2.37
2.29
2.42
3.05
2.81

---

Recorded pIC50 values (full-length MALT1 protein (Strep-MALT1(1-824)-His) (Homo sapiens, UniProt Q9UDY8)) are given below.
One number for each entry, as −log10 of the molar value.

Example entries begin here.
• O=C(Nc1cnc(-n2nccn2)c(Cl)c1)c1cnn(-c2c(Cl)cc(F)cc2Cl)c1C(F)(F)F = 6.34
• Cc1cc(F)ccc1-n1ncc(C(=O)Nc2cc(C#N)c(-n3nccn3)nc2C)c1C(F)(F)F = 6.99
• O=C(Nc1cnc(-n2nccn2)c(Cl)c1)c1cnn(-c2cccc3c2OC(F)(F)O3)c1C(F)(F)F = 6.84
• Cc1cnccc1-n1ncc(C(=O)Nc2cnc(-n3nccn3)c(Cl)c2)c1C(F)(F)F = 6.68

Return reported pIC50 values for all items listed beneath this line.
1. Nc1nccc(-n2ncc(C(=O)Nc3cnc(-n4nccn4)c(Cl)c3)c2C(F)(F)F)c1Cl
2. Cc1c(-n2ncc(C(=O)Nc3cnc(-n4nccn4)c(Cl)c3)c2C(F)(F)F)ccnc1N1CC(O)C1
3. Nc1ccc(Cl)c(-n2ncc(C(=O)Nc3cnc(-n4nccn4)c(Cl)c3)c2C(F)(F)F)n1
4. Cc1cccc(-n2ncc(C(=O)Nc3cnc(-n4nccn4)c(Cl)c3)c2C(F)(F)F)c1
5. Cc1nc(C#N)ccc1-n1ncc(C(=O)Nc2cnc(-n3nccn3)c(Cl)c2)c1C(F)(F)F
6. Cc1nc(Cl)ccc1-n1ncc(C(=O)Nc2cnc(-n3nccn3)c(C#N)c2)c1C(F)(F)F
7. O=C(Nc1cnc(-n2nccn2)c(Cl)c1)c1cnn(-c2ccc(F)c(F)c2F)c1C(F)(F)F

1: 6.97; 2: 5.09; 3: 6.55; 4: 5.61; 5: 6.86; 6: 6.50; 7: 6.19
